Tested on: U2OS
Assay: cell viability relative to DMSO; higher = less toxic
Details: 72 h; 10 nM
The following molecules are listed with their measured cell viability values.
Field: numeric (%). Do not append units.

# count of solved cases: 3
O=C(O)CNC(=O)c1ccccc1; 99.3
O=C(O[C@@H]1Cc2c(O)cc(O)cc2O[C@@H]1c1cc(O)c(O)c(O)c1)c1cc(O)c(O)c(O)c1 [epigallocatechin-gallate-(-)]; 98.2
Cc1ccccc1N1CCN(S(=O)(=O)C[C@]23CC[C@H](C[C@@H]2NC(=O)[C@@H](N)CCS(C)(=O)=O)C3(C)C)CC1; 96.4

Okay, now this molecule:
-- ask Please look at this molecule and report its cell viability: O=P(O)(O)CN(CCN(CP(=O)(O)O)CP(=O)(O)O)CP(=O)(O)O
-- reply 95.9

###

Test system: Vero E6
Test: cell viability relative to DMSO; higher = less toxic
Conditions: 72 h; 10000 nM
Metric: cell viability (%)
Field: numeric (%). Do not append units.

# count of solved cases: 5
COc1cc2nc(N3CCN(C(=O)c4ccco4)CC3)nc(N)c2cc1OC; 118
COc1ccc(Br)cc1S(=O)(=O)NC(=O)/C=C/c1ccccc1Cc1ccc2ccccc2c1; 101
CCc1c2c(nc3ccc(OC(=O)N4CCC(N5CCCCC5)CC4)cc13)-c1cc3c(c(=O)n1C2)COC(=O)[C@]3(O)CC; 75.2
CCCCCCOC(=O)NC(=N)c1ccc(NCc2nc3cc(C(=O)N(CCC(=O)OCC)c4ccccn4)ccc3n2C)cc1 [dabigatran-etexilate]; 108
COc1cccc(C(=O)CCN[C@@H](C)[C@H](O)c2ccccc2)c1; 101

-- ask Give Vero E6 cell viability for the following molecule: Nc1cccc2c(=O)[nH][nH]c(=O)c12 [monosodium-alpha-luminol]
-- reply 106

-- ask Give Vero E6 cell viability for the following molecule: NC(=O)c1noc([C@H](CCCC2CCCCC2)CC(=O)NO)n1
-- reply 97

-- ask Give Vero E6 cell viability for the following molecule: CO[C@@H]1[C@H](N(C)C(=O)c2ccccc2)C[C@H]2O[C@]1(C)n1c3ccccc3c3c4c(c5c6ccccc6n2c5c31)C(=O)NC4
-- reply 36

-- ask Give Vero E6 cell viability for the following molecule: CN(C)c1ccc(-c2nc3c(N4CCN(CC(=O)Nc5nccs5)CC4)c(Cl)cnc3[nH]2)cc1
-- reply 100

-- ask Give Vero E6 cell viability for the following molecule: Cn1ncc(Cl)c1-c1cc(C(=O)N[C@H](CN)Cc2ccc(F)c(F)c2)oc1Cl
-- reply 83.6

-- ask Give Vero E6 cell viability for the following molecule: CCN1CCCC(OC(=O)C(c2ccccc2)c2ccccc2)C1 (stereo unspecified) [piperidolate]
-- reply 98.2

-- ask Give Vero E6 cell viability for the following molecule: CCOC(=O)NNc1nncc2ccccc12
-- reply 99.4

-- ask Give Vero E6 cell viability for the following molecule: CC(C)c1c2cc(-c3ccnc(N[C@H]4CC[C@H](NC5CCOCC5)CC4)n3)ccc2nn1C
-- reply 4.7

-- ask Give Vero E6 cell viability for the following molecule: CCOC(=O)Nc1ccc(NCc2c(C)cc(C)cc2C)cc1N
-- reply 99.7

-- ask Give Vero E6 cell viability for the following molecule: CO[C@H]1CC=C2CCN3CCC4=C(CC(=O)OC4)[C@]23C1
-- reply 105

-- ask Give Vero E6 cell viability for the following molecule: O=C(O)CNC(=O)c1ccccc1
-- reply 100

-- ask Give Vero E6 cell viability for the following molecule: CC(C)N(CC[C@H](c1ccccc1)c1cc(CO)ccc1O)C(C)C [5-hydroxymethyl-tolterodine]
-- reply 101

-- ask Give Vero E6 cell viability for the following molecule: CC[C@@H]1C(=O)OC[C@@H]1Cc1cncn1C
-- reply 103

###

Tested on: U2OS
Experiment: cell viability relative to DMSO; higher = less toxic
Conditions: 72 h; 100 nM
Metric: cell viability (%)
Field: numeric (%). Do not append units.

Nc1cccc2c(=O)[nH][nH]c(=O)c12 [monosodium-alpha-luminol]; 95.4
NC(=O)N1C(=O)/C(=C(\O)c2cccs2)c2cc(Cl)ccc21 [tenidap]; 93.3
OCCNCCCOc1cccc(Cl)c1Cl [2,3-DCPE]; 100

-- ask Please look at this compound and report its cell viability: COc1ccc(CN2C(=O)C(=O)c3cc(OC(F)(F)F)ccc32)cc1
-- reply 92.8

-- ask Please look at this compound and report its cell viability: OC1=c2ccccc2=C(NC2CCCCC2)/C1=C\c1ccccc1
-- reply 108

-- ask Please look at this compound and report its cell viability: O=C1NC(=O)[C@@H](c2cn3c4c(cccc24)CCC3)[C@@H]1c1c[nH]c2ccccc12 [tivantinib]
-- reply 95.1

-- ask Please look at this compound and report its cell viability: CN[C@@H](C)C(=O)N[C@H](C(=O)N1CCC[C@H]1c1nc(C(=O)c2ccc(F)cc2)cs1)C1CCCCC1 [LCL-161]
-- reply 99.7

-- ask Please look at this compound and report its cell viability: Cc1c(N)c(=O)n(-c2ccccc2)n1C [ampyrone]
-- reply 100

-- ask Please look at this compound and report its cell viability: CC(C)n1nc(C#Cc2ccccc2)c2c(N)ncnc21 [SPP86]
-- reply 107

-- ask Please look at this compound and report its cell viability: C[C@H](Oc1cc(-c2cnn(C3CCNCC3)c2)cnc1N)c1c(Cl)ccc(F)c1Cl [crizotinib-(S)]
-- reply 99.2

###

The following molecules are listed with their measured cell viability values.
Tested on: U2OS
Experiment: cell viability relative to DMSO; higher = less toxic
Settings: 72 h; 10000 nM
Field: numeric (%). Do not append units.

CC(=O)N1CCN(C)CC1; 102
COC(=O)[C@H](c1ccccc1Cl)N1CCc2sccc2C1; 97.6
CCc1cc(O)c(Oc2ccc(C(N)=O)cc2F)cc1F; 102
COc1ccc2[nH]c(I)c(CCNC(C)=O)c2c1; 102
CCOC(=O)NNc1nncc2ccccc12; 105

Okay, now this molecule:
-- ask Please look at this molecule and report its cell viability: N=C(N)NCc1cccc(I)c1
-- reply 95.9

###

Test system: Caco-2
Test: cell viability relative to DMSO; higher = less toxic
Conditions: 72 h; 100 nM
Metric: cell viability (%)
Field: numeric (%). Do not append units.

-- ask Give Caco-2 cell viability for the following compound: N#Cc1ccc(N2CCN(C(=O)COc3ccc4[nH]cc(CCN)c4c3)CC2)cc1
-- reply 89

-- ask Give Caco-2 cell viability for the following compound: O=C(NCc1ccc(F)cc1)N1CCN2C(=O)OC(c3ccccc3)(c3ccccc3)[C@@H]2C1 (racemic)
-- reply 89.1

-- ask Give Caco-2 cell viability for the following compound: O=C(Nc1ccc(S(=O)(=O)Nc2ccccc2Cl)c(Cl)c1)c1ccccn1
-- reply 104

-- ask Give Caco-2 cell viability for the following compound: COc1ccc2c(c1)[C@]13CCCC[C@@H]1[C@H](C2)N(C)CC3
-- reply 104

###

System: Calu-3
Assay: cell viability relative to DMSO; higher = less toxic
Conditions: 72 h; 10 nM
The following compounds are listed with their measured cell viability values.
Field: numeric (%). Do not append units.

# count of solved cases: 3
O=P(O)(O)CN(CCN(CP(=O)(O)O)CP(=O)(O)O)CP(=O)(O)O; 100
NC1(Cc2ccc(Cl)cc2)CCN(c2ncnc3[nH]ccc23)CC1; 99.9
CC(=O)N1CCC(C(=O)N(CCCN2CCC(Cc3ccc(C(N)=O)cc3)CC2)c2ccc(C)c(Cl)c2)CC1; 101

-- ask Give Calu-3 cell viability for the following compound: O=C(O)CCCO [SODIUM OXYBATE]
-- reply 99

-- ask Give Calu-3 cell viability for the following compound: Cc1oc(=O)oc1COC(=O)C1=C([C@H]2CCCO2)S[C@@H]2[C@@H]([C@@H](C)O)C(=O)N12
-- reply 94.7

-- ask Give Calu-3 cell viability for the following compound: Cn1cc(/C=C2\C(=O)Nc3cccnc32)c2ccccc21
-- reply 114

-- ask Give Calu-3 cell viability for the following compound: O=C(O)c1ccc(OCCn2ccnc2)cc1
-- reply 97.7

-- ask Give Calu-3 cell viability for the following compound: O=c1ccc2cc(O[C@@H]3O[C@H](CO)[C@@H](O)[C@H](O)[C@H]3O)c(O)cc2o1
-- reply 101

-- ask Give Calu-3 cell viability for the following compound: CO[C@@H]1[C@H](N(C)C(=O)c2ccccc2)C[C@H]2O[C@]1(C)n1c3ccccc3c3c4c(c5c6ccccc6n2c5c31)C(=O)NC4
-- reply 88.5

###

System: Vero E6
Test: relative viability EC50 (midpoint between 100% and the lowest measured viability); higher = less toxic
Conditions: 72 h
The following compounds are listed with their measured relative viability EC50 values.

Cc1cc(-c2ccccc2)nnc1NCCN1CCOCC1 [minaprine]; > 10 µM
CO[C@H]1CC=C2CCN3CCC4=C(CC(=O)OC4)[C@]23C1 [NSC-9965]; > 10 µM
O=C(OCCOCCO)c1ccccc1Nc1cccc(C(F)(F)F)c1 [etofenamate]; > 10 µM
COc1cc(N2CCC(N)CC2)ccc1Nc1ncc(Cl)c(-c2c[nH]c3ccccc23)n1 [AZD3463]; 2.08 µM
COc1cc2ncnc(Nc3cccc(Cl)c3)c2cc1OC [tyrphostin-AG-1478]; 0.335 µM

-- ask Give Vero E6 relative viability EC50 for the following compound: CCc1cc(O)c(Oc2ccc(C(N)=O)cc2F)cc1F
-- reply > 10 µM

-- ask Give Vero E6 relative viability EC50 for the following compound: CC(=O)NCCc1c(Cc2ccccc2)[nH]c2ccccc12 [luzindole]
-- reply > 10 µM

-- ask Give Vero E6 relative viability EC50 for the following compound: CC1=C(C(=O)OC(C)C)C(c2cccc([N+](=O)[O-])c2)C(C(=O)OC2CN(C(c3ccccc3)c3ccccc3)C2)=C(N)N1 (centres undefined) [azelnidipine]
-- reply > 10 µM

-- ask Give Vero E6 relative viability EC50 for the following compound: CO[C@@]1(NC(=O)C(C(=O)O)c2ccc(O)cc2)C(=O)N2C(C(=O)O)=C(CSc3nnnn3C)CO[C@@H]21 (some centres undefined) [moxalactam]
-- reply > 10 µM
